EXPERIMENT_SUMMARY: Population average serum elimination rate and half-life (linear mixed model, one compartment, first-order)
CONDITION: population average, model with serum levels after subtraction of background exposure (sensitivity analysis)
QUANTITY_NAME: Constant elimination rate (95% CI)

- COMPOUND: "O=S(=O)(O)C(F)(F)C(F)(F)C(F)(F)C(F)(F)C(F)(F)C(F)(F)C(F)(F)C(F)(F)F"
  Constant elimination rate (95% CI): "0.41 (0.11, 0.71) yearly"
- COMPOUND: "O=S(=O)(O)C(F)(C(F)(F)F)C(F)(F)C(F)(F)C(F)(F)C(F)(F)C(F)(F)C(F)(F)F (stereo not drawn) [1m-PFOS, perfluoro-1-methylheptanesulfonate]"
  Constant elimination rate (95% CI): "0.75 (0.15, 1.36) yearly"
- COMPOUND: "O=S(=O)(O)C(F)(F)C(F)(F)C(F)(F)C(F)(F)C(F)(F)F"
  Constant elimination rate (95% CI): "1.1 (0.68, 1.52) yearly"
- COMPOUND: "O=S(=O)(O)C(F)(F)C(F)(F)C(F)(F)C(F)(F)C(F)(F)C(F)(F)C(F)(F)F"
  Constant elimination rate (95% CI): "0.51 (0.12, 0.9) yearly"
- COMPOUND: "O=S(=O)(O)C(F)(F)C(F)(F)C(F)(F)C(F)(F)C(F)(F)C(F)(F)F"
  Constant elimination rate (95% CI): "0.24 (0.16, 0.33) yearly"

So for "O=C(O)C(F)(F)C(F)(F)C(F)(F)C(F)(F)C(F)(F)C(F)(F)C(F)(F)F" , the logged Constant elimination rate (95% CI) turned out to be 0.47 (0.35, 0.58) yearly

###

EXPERIMENT_SUMMARY: Individual serum elimination rate and half-life (linear regression per employee)
CONDITION: human, serum, oral, HL (half-life), individual estimate, subject 12, 5 samples
QUANTITY_NAME: half-life (days)
Just the number in days, nothing appended.

Below, each entry is followed by its recorded half-life result.
- COMPOUND: "O=S(=O)(O)C(F)(F)C(F)(F)C(F)(F)C(F)(F)C(F)(F)C(F)(F)F [PFHxS, perfluorohexane sulfonic acid]"
  VALUE_UNIT: "days"
  half-life: 584
- COMPOUND: "O=C(O)C(F)(F)C(F)(F)C(F)(F)C(F)(F)C(F)(F)C(F)(F)C(F)(F)F [PFOA, perfluorooctanoic acid]"
  VALUE_UNIT: "days"
  half-life: 365

Consider now this further compound.
GET /value?item= O=C(O)C(F)(F)C(F)(F)C(F)(F)C(F)(F)C(F)(F)C(F)(F)F [PFHpA, perfluoroheptanoic acid] &field=half-life returns 36.5

###

EXPERIMENT_SUMMARY: PFAS levels in serum samples of airport employees (LC/MS/MS)
CONDITION: females (N=7)
QUANTITY_NAME: Initial serum PFAS level, max
Please report the result as a number followed by the unit.

Example cases with answers are listed next.
- GIVEN_SMILES: "O=C(O)C(F)(F)C(F)(F)C(F)(F)C(F)(F)C(F)(F)C(F)(F)F"
  QUANTITY_NAME: "Initial serum PFAS level, max"
  RECORDED_MEASUREMENT: "2.2 ng/mL"
- GIVEN_SMILES: "O=C(O)C(F)(F)C(F)(F)C(F)(F)C(F)(F)C(F)(F)F"
  QUANTITY_NAME: "Initial serum PFAS level, max"
  RECORDED_MEASUREMENT: "0.54 ng/mL"
- GIVEN_SMILES: "O=S(=O)(O)C(F)(F)C(F)(F)C(F)(F)C(F)(F)C(F)(F)C(F)(F)C(F)(F)F"
  QUANTITY_NAME: "Initial serum PFAS level, max"
  RECORDED_MEASUREMENT: "2.2 ng/mL"

Form: compound = "O=S(=O)(O)C(F)(F)C(F)(F)C(F)(F)C(F)(F)C(F)(F)C(F)(F)F" ; Initial serum PFAS level, max = 183 ng/mL

###

EXPERIMENT_SUMMARY: Individual serum elimination rate and half-life (linear regression per employee)
CONDITION: human, serum, oral, HL (half-life), individual estimate, subject 8, 5 samples
QUANTITY_NAME: half-life (days)
Entry rule: numbers only, all in days.

Looking up "O=C(O)C(F)(F)C(F)(F)C(F)(F)C(F)(F)C(F)(F)C(F)(F)F" , I see its half-life listed as 36.5

###

# Serum PFAS level, Median listing for each entry below
EXPERIMENT_SUMMARY: PFAS levels in serum samples of airport employees (LC/MS/MS)
CONDITION: 1st sampling (September 2018), count 17
Lab note: jot down the number only; don't add units.

- GIVEN_SMILES: "O=S(=O)(O)C(F)(F)C(F)(F)C(F)(F)C(F)(F)C(F)(F)C(F)(F)F"
  RECORDED_MEASUREMENT: 133
- GIVEN_SMILES: "O=C(O)C(F)(F)C(F)(F)C(F)(F)C(F)(F)C(F)(F)C(F)(F)C(F)(F)F"
  RECORDED_MEASUREMENT: 13

Sure, the documented Serum PFAS level, Median for "O=C(O)C(F)(F)C(F)(F)C(F)(F)C(F)(F)C(F)(F)F" is 0.37

Per the record, "O=S(=O)(O)C(F)(F)C(F)(F)C(F)(F)C(F)(F)C(F)(F)C(F)(F)C(F)(F)C(F)(F)F" has Serum PFAS level, Median of 11

Serum PFAS level, Median reading for "O=S(=O)(O)C(F)(F)C(F)(F)C(F)(F)C(F)(F)F" : 0.46

###

Examples of molecules with documented half-life follow.
EXPERIMENT_SUMMARY: Individual serum elimination rate and half-life (linear regression per employee)
CONDITION: human, serum, oral, HL (half-life), individual estimate, subject 1, 5 samples
Could you give me the number in days? Just the number is fine.

Solved cases below.
- GIVEN_SMILES: "O=C(O)C(F)(F)C(F)(F)C(F)(F)C(F)(F)C(F)(F)C(F)(F)C(F)(F)F"
  QUANTITY_NAME: "half-life"
  RECORDED_MEASUREMENT: 877
- GIVEN_SMILES: "O=C(O)C(F)(F)C(F)(F)C(F)(F)C(F)(F)C(F)(F)C(F)(F)F"
  QUANTITY_NAME: "half-life"
  RECORDED_MEASUREMENT: 110

Now examine the next entry.
// field: half-life; key: "O=S(=O)(O)C(F)(F)C(F)(F)C(F)(F)C(F)(F)C(F)(F)C(F)(F)F" ; value = 1280

###

EXPERIMENT_SUMMARY: PFAS levels in serum samples of airport employees (LC/MS/MS)
CONDITION: males (N=19)
QUANTITY_NAME: Initial serum PFAS level, Min (ng/mL)
Number in ng/mL, nothing else.

- MOLECULE: "O=C(O)C(F)(F)C(F)(F)C(F)(F)C(F)(F)C(F)(F)C(F)(F)F"
  Initial serum PFAS level, Min [ng/mL]: 0.07
- MOLECULE: "O=S(=O)(O)C(F)(F)C(F)(F)C(F)(F)C(F)(F)C(F)(F)F"
  Initial serum PFAS level, Min [ng/mL]: 1.4
- MOLECULE: "O=S(=O)(O)C(F)(F)C(F)(F)C(F)(F)C(F)(F)C(F)(F)C(F)(F)F"
  Initial serum PFAS level, Min [ng/mL]: 17

Entry under test: "O=S(=O)(O)C(F)(F)C(F)(F)C(F)(F)C(F)(F)C(F)(F)C(F)(F)C(F)(F)F" . Its Initial serum PFAS level, Min was 0.28

Per the records, this molecule ( O=S(=O)(O)C(F)(C(F)(F)F)C(F)(F)C(F)(F)C(F)(F)C(F)(F)C(F)(F)C(F)(F)F (stereo not drawn) [1m-PFOS, perfluoro-1-methylheptanesulfonate] ) has Initial serum PFAS level, Min equal to 0.25

Per the record, "O=C(O)C(F)(F)C(F)(F)C(F)(F)C(F)(F)C(F)(F)F" has Initial serum PFAS level, Min of 0.16

The reported value for "O=S(=O)(O)C(F)(F)C(F)(F)C(F)(F)C(F)(F)C(F)(F)C(F)(F)C(F)(F)C(F)(F)F" in terms of Initial serum PFAS level, Min is 5.4

Data point: "O=C(O)C(F)(F)C(F)(F)C(F)(F)C(F)(F)C(F)(F)C(F)(F)C(F)(F)F" ; Initial serum PFAS level, Min = 2.9

###

Catalogue of compounds with associated half-life
EXPERIMENT_SUMMARY: Population average serum elimination rate and half-life (linear mixed model, one compartment, first-order)
CONDITION: human, serum, oral, Half-life (95% CI), population average, model with serum levels after subtraction of background exposure (sensitivity analysis)
Kindly answer with a numeric value in days, unit omitted.

- COMPOUND: "O=C(O)C(F)(F)C(F)(F)C(F)(F)C(F)(F)C(F)(F)C(F)(F)C(F)(F)F [PFOA, perfluorooctanoic acid]"
  RECORDED_MEASUREMENT: 541

Continue with the next compound.
Entry under test: O=S(=O)(O)C(F)(F)C(F)(F)C(F)(F)C(F)(F)C(F)(F)C(F)(F)F [PFHxS, perfluorohexane sulfonic acid] . Its half-life was 1040
